B1: CLPTM1 (parent)
chain: LGCYAVYSLLYLEHKGWYSWVLSM

- Variants of: B1
- experiment-description: protein stability index of a GFP-peptide fusion (GPS, HEK-293T) (PSI 1-6); higher = more stable;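 note: lentivirally expressed fusions sorted by FACS into six bins by GFP to DsRed ratio, PSI derived from sequencing read proportions per bin multiplied by bin number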
- test-conditions: c terminus: a fixed tail appended
Listed here: items and their measured protein stability index.
// response body must contain only the number

Some solved cases for reference:
LGCYAVYSLLYLEHKGWYPWVLSM [S19P]
2.93
LGCYAVYSLLYLAHKGWYSWVLSM [E13A]
1.11
LGCYAVYSQLYLEHKGWYSWVLSM [L9Q]
2.67
LGCYAPYSLLYLEHKGWYSWVLSM [V6P]
2.49
LGCYAVNSLLYLEHKGWYSWVLSM [Y7N]
5.04

Task: I am curious: what protein stability index value has been reported for LGCYAVYSLLYLEHKGWYTWVLSM [S19T] ?
Output: 3.99

Task: I am curious: what protein stability index value has been reported for LGRYAVYSLLYLEHKGWYSWVLSM [C3R] ?
Output: 1.63

Task: I am curious: what protein stability index value has been reported for LGCYAVYSLSYLEHKGWYSWVLSM [L10S] ?
Output: 1.76

Sourced from the supplement of paper PMC10567573
